- Test system: SW756 (Cervical Carcinoma);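 further: after 72 h of two-drug dosing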
- method_summary: Bliss excess, mean over the matrix (fraction); higher = more synergy
Assignment: determine reported Bliss excess for the given molecules.
Form: value (number only, do not type unit).

Quickly give me recorded Bliss excess for NC1(C(=O)N[C@@H](CCO)c2ccc(Cl)cc2)CCN(c2ncnc3[nH]ccc23)CC1 [Capivasertib] + CC(=O)c1c(C)c2cnc(Nc3ccc(N4CCNCC4)cn3)nc2n(C2CCCC2)c1=O [Palbociclib] (first compound max 10 µM, 7x7, partner max 10 µM) -0.0499

Report Bliss excess, nothing else, for this molecule: COc1nnc2ccc(N3CCC(c4ccc(OCCN5CCN(C)C(=O)[C@H]5C)cc4)CC3)nn12 [AZD5153] + Cc1c2c(nn1C)CSCc1cc(n(C)n1)CSc1cc(c3ccccc3c1)OCCCc1c(C(=O)O)n(C)c3c-2c(Cl)ccc13 [AZD5991] (first compound max 1 µM, 7x7, partner max 1 µM) -0.0238

Please give the documented Bliss excess of COc1cccc(OCCCN)c1-c1cc(Nc2cnc(C#N)cn2)n[nH]1 [Prexasertib] + C=CCn1c(=O)c2cnc(Nc3ccc(N4CCN(C)CC4)cc3)nc2n1-c1cccc(C(C)(C)O)n1 [AZD1775] (first compound max 1 µM, partner max 1 µM) 0.0163

Please report Bliss excess for the following molecule: CCN(CCO)CCCOc1ccc2c(Nc3cc(CC(=O)Nc4cccc(F)c4)[nH]n3)ncnc2c1 [AZD2811] + C=CCn1c(=O)c2cnc(Nc3ccc(N4CCN(C)CC4)cc3)nc2n1-c1cccc(C(C)(C)O)n1 [AZD1775] (first compound max 1 µM, partner max 1 µM) -0.01

Output measured Bliss excess for this item: Cn1cnc2c(F)c(Nc3ccc(Br)cc3Cl)c(C(=O)NOCCO)cc21 [Selumetinib] + CC(C)n1c(=O)n(C)c2cnc3cc(F)c(-c4ccc(OCCCN5CCCCC5)nc4)cc3c21 [AZD1390] (first compound max 10 µM, 7x7, partner max 0.3 µM) -0.019

State, in one line, measured Bliss excess of C[C@@H](c1ccc2nccn2c1)n1nnc2ncc(-c3cnn(C)c3)nc21 [Savolitinib] + Cc1c2c(nn1C)CSCc1cc(n(C)n1)CSc1cc(c3ccccc3c1)OCCCc1c(C(=O)O)n(C)c3c-2c(Cl)ccc13 [AZD5991] (first compound max 1 µM, 7x7, partner max 1 µM) -0.0692

Check the records and state Bliss excess for CS(=O)(=O)CCNCc1ccc(-c2ccc3ncnc(Nc4ccc(OCc5cccc(F)c5)c(Cl)c4)c3c2)o1 [Lapatinib] + NC1(c2ccc(-c3nc4ccn5c(=O)[nH]nc5c4cc3-c3ccccc3)cc2)CCC1 [MK-2206] (first compound max 10 µM, 7x7, partner max 10 µM) -0.0506
